Numbers sourced from patent US11225505B2.

# Test system: Acinetobacter baumannii FADDI-AB030
# procedure.summary: microbe, parasite or virus in culture
# Type: cell-based
# condition.description: FADDI-AB030
Where a SMILES comes first, the peptide text is derived from it. Bridges are numbered along the chain shown (N, C = ends). [ ]: non-standard residue; d: D form. The star is where a group is joined. X5 = Cc1ccc2nc(C(=O)*)cn2c1; dNle = CCCC[C@@H](N)C(=O)O; X29 = O=C(c1cc(Cl)ccn1)*; Dab = NCC[C@H](N)C(=O)O; Abu = CC[C@H](N)C(=O)O; Dap = NC[C@H](N)C(=O)O; X31 = O=C(c1ncccc1Cl)*
# Minimum inhibitory concentration per entry
measured.parameter: Minimum inhibitory concentration (µg/mL)

compound: CCCC[C@H]1NC(=O)[C@H](CCN)NC(=O)[C@@H](NC(=O)[C@H](CN)NC(=O)[C@@H](NC(=O)[C@H](CCN)NC(=O)c2cc(Cl)ccn2)[C@@H](C)O)CCNC(=O)[C@H]([C@@H](C)O)NC(=O)[C@H](CCN)NC(=O)[C@H](CCN)NC(=O)[C@H](CC)NC1=O [Compound 95] (X29-[Dab]T[Dap][Dab][Dab][dNle][Abu][Dab][Dab]T; lactam 4-C)
unit.label: µg/mL
numeric.value: 0.25

compound: CC[C@@H]1NC(=O)[C@@H](CC(C)C)NC(=O)[C@H](CCN)NC(=O)[C@@H](NC(=O)[C@H](CN)NC(=O)[C@@H](NC(=O)[C@H](CCN)NC(=O)c2ncccc2Cl)[C@@H](C)O)CCNC(=O)[C@H]([C@@H](C)O)NC(=O)[C@H](CCN)NC(=O)[C@H](CCN)NC1=O [Compound 36] (X31-[Dab]T[Dap][Dab][Dab][dL][Abu][Dab][Dab]T; lactam 4-C)
unit.label: µg/mL
numeric.value: 4

compound: CC[C@@H]1NC(=O)[C@@H](CC(C)C)NC(=O)[C@H](CCN)NC(=O)[C@@H](NC(=O)[C@H](CN)NC(=O)[C@@H](NC(=O)[C@H](CCN)NC(=O)c2cn3cc(C)ccc3n2)[C@@H](C)O)CCNC(=O)[C@H]([C@@H](C)O)NC(=O)[C@H](CCN)NC(=O)[C@H](CCN)NC1=O [Compound 49] (X5-[Dab]T[Dap][Dab][Dab][dL][Abu][Dab][Dab]T; lactam 4-C)
unit.label: µg/mL
numeric.value: 1
